# assay.notes: tissue to plasma partition coefficients
# experimental.conditions: liver; In-house data; read-out: Kp Liver
test.readout: Kp
Numbers only.

Task: So what's the measured Kp for this one? COc1cc2c(c(OC)c1OC)-c1c(cc(OC)c(OC)c1OC)C[C@H](C)[C@H](C)C2
Result: 3.9

----------
# assay.notes: octanol/water partition coefficient
# Type: physicochemical
# experimental.conditions: In-house data
test.readout: logP
Numbers only.

Task: # get_value(readout='logP', item= COc1cc2c(c(OC)c1OC)-c1c(cc3c(c1OC)OCO3)CC(C)C(C)(O)C2OC(=O)c1ccccc1 (stereo not shown) [STA, schisantherin A] )
Result: 1.7

// data source = paper PMC7997453
